test system: HepG2; assay: Cytotoxicity against human HepG2 cells; type: functional, cell-based
READOUT LABEL: IC50
Returns: string containing the numeric result and its unit.

[[record]]
molecule = "C=C(NC(=O)C(=C)NC(=O)c1csc(C2=N[C@@H]3c4csc(n4)[C@H]4NC(=O)c5csc(n5)C([C@](C)(O)[C@@H](C)O)NC(=O)[C@H]5CSC(=N5)/C(=C/C)NC(=O)C([C@@H](C)O)NC(=O)c5csc(n5)[C@]3(CC2)NC(=O)[C@H](C)NC(=O)C(=C)NC(=O)C(=C)NC(=O)[C@H](C(C)C)N[C@H]2C=Cc3c([C@H](C)O)cc(nc3[C@H]2O)C(=O)O[C@@H]4C)n1)C(N)=O (stereo not given in full)"
readout_label = "IC50"
recorded_result = "1.3 µM"

[[record]]
molecule = "C=C(NC(=O)C(=C)NC(=O)c1ccc2c(n1)-c1coc(n1)C(=O)NC(=O)CNC(=O)c1coc(n1)C(=C)NC(=O)[C@H](C(C)(C)O)NC(=O)C(=O)NC(=O)c1nc(oc1C)/C(=C\\C)NC[C@H](C(C)C)NC(=O)c1csc-2n1)C(N)=O"
readout_label = "IC50"
recorded_result = "1.3 µM"

[[record]]
molecule = "C/C=C1\\NC(=O)[C@H]([C@@H](C)O)NC(=O)c2csc(n2)-c2ccc(-c3nc(-c4nc(C(=O)N/C(=C/C)C(=O)NC[C@@H](C)O)cs4)cs3)nc2-c2csc(n2)[C@H]([C@@H](C)O)NC(=O)c2csc(n2)[C@H](C(C)(C)O)NC(=O)c2csc1n2"
readout_label = "IC50"
recorded_result = "1.34 µM"


In plain terms, C/C=C1\NC(=O)[C@H]([C@@H](C)O)NC(=O)c2csc(n2)-c2ccc(-c3nc(-c4nc(C(=O)N/C(=C/C)C(=O)NC[C@H](C)O)cs4)cs3)nc2-c2csc(n2)[C@H]([C@@H](C)O)NC(=O)c2csc(n2)[C@H](C(C)C)NC(=O)c2csc1n2 has a documented IC50 of 0.91 µM

Kindly note the recorded IC50 for C=C(NC(=O)C(=C)NC(=O)c1csc(C2=N[C@@H]3c4csc(n4)[C@H]4NC(=O)c5csc(n5)[C@H]([C@](C)(O)[C@@H](C)O)NC(=O)[C@H]5CSC(=N5)/C(=C/C)NC(=O)[C@H]([C@@H](C)O)NC(=O)c5csc(n5)[C@]3(CC2)NC(=O)[C@H](C)NC(=O)C(=C)NC(=O)[C@H](C)NC(=O)[C@H]([C@@H](C)CC)N[C@@H]2C=Cc3c([C@H](C)O)cc(nc3[C@H]2O)C(=O)O[C@@H]4C)n1)C(N)=O , which is 0.71 µM

###

tested on: AGS; assay: Cytotoxicity against human AGS cells; type: functional, cell-based
READOUT LABEL: pIC50
The quantity pIC50 is defined as the negative base-10 logarithm of the molar concentration.

Examples with answers:
[[record]]
compound = "C=C(NC(=O)C(=C)NC(=O)c1csc(C2=N[C@@H]3c4csc(n4)[C@H]4NC(=O)c5csc(n5)[C@H]([C@](C)(O)[C@@H](C)O)NC(=O)[C@H]5CSC(=N5)/C(=C/C)NC(=O)[C@H]([C@@H](C)O)NC(=O)c5csc(n5)[C@]3(CC2)NC(=O)[C@H](C)NC(=O)C(=C)NC(=O)[C@H](C)NC(=O)[C@H]([C@@H](C)CC)N[C@@H]2C=Cc3c([C@H](C)O)cc(nc3[C@H]2O)C(=O)O[C@@H]4C)n1)C(N)=O"
readout_label = "pIC50"
recorded_result = 6.40

[[record]]
compound = "C/C=C1\\NC(=O)[C@H]([C@@H](C)O)NC(=O)c2csc(n2)-c2ccc(-c3nc(-c4nc(C(=O)N/C(=C/C)C(=O)NC[C@@H](C)O)cs4)cs3)nc2-c2csc(n2)[C@H]([C@@H](C)O)NC(=O)c2csc(n2)[C@H](C(C)(C)O)NC(=O)c2csc1n2"
readout_label = "pIC50"
recorded_result = 5.84

[[record]]
compound = "C=C(NC(=O)C(=C)NC(=O)c1ccc2c(n1)-c1coc(n1)C(=O)NC(=O)CNC(=O)c1coc(n1)C(=C)NC(=O)[C@H](C(C)(C)O)NC(=O)C(=O)NC(=O)c1nc(oc1C)/C(=C\\C)NC[C@H](C(C)C)NC(=O)c1csc-2n1)C(N)=O"
readout_label = "pIC50"
recorded_result = 6.00

[[record]]
compound = "C/C=C1\\NC(=O)[C@H]([C@@H](C)O)NC(=O)c2csc(n2)-c2ccc(-c3nc(-c4nc(C(=O)N/C(=C/C)C(=O)NC[C@H](C)O)cs4)cs3)nc2-c2csc(n2)[C@H]([C@@H](C)O)NC(=O)c2csc(n2)[C@H](C(C)C)NC(=O)c2csc1n2"
readout_label = "pIC50"
recorded_result = 6.30


// moving on: another record for pIC50
Reported pIC50 for C=C(NC(=O)C(=C)NC(=O)c1csc(C2=N[C@@H]3c4csc(n4)[C@H]4NC(=O)c5csc(n5)C([C@](C)(O)[C@@H](C)O)NC(=O)[C@H]5CSC(=N5)/C(=C/C)NC(=O)C([C@@H](C)O)NC(=O)c5csc(n5)[C@]3(CC2)NC(=O)[C@H](C)NC(=O)C(=C)NC(=O)C(=C)NC(=O)[C@H](C(C)C)N[C@H]2C=Cc3c([C@H](C)O)cc(nc3[C@H]2O)C(=O)O[C@@H]4C)n1)C(N)=O (stereo not given in full) was 6.15

Data origin: ChEMBL document CHEMBL5244229
